Each recorded value in this set is attributed to patent US20220127585A1.

Target: T1, B-Raf kinase, P15056
T1 chain: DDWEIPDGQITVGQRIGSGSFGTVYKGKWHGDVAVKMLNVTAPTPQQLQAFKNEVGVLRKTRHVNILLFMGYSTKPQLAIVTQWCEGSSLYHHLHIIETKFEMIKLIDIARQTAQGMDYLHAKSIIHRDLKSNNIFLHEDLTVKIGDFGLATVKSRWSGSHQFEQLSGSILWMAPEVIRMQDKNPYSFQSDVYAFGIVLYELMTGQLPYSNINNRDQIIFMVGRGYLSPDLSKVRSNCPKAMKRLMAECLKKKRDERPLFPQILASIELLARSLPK
Assay: intrinsic tryptophan fluorescence (ITF), column head 'Kd (ITF) (µM)'
assayMetric: Kd (nM)

A: TRHVNILLFMG (modifications not checked) [SEQ ID NO: 45 (…) with N-Cap N1]
B: TRHVNILLFMG (modifications not checked) [SEQ ID NO: 45 (…) with N-Cap N2]
Please state the entry with greater Kd among A and B . Please identify the chosen entry by its label.
B
